System: NCI-H522 lung
run-description: NCI-60 one-dose screen, 48 h
condition-description: 10 µM unless noted
About 83,000 compounds went through this panel and 20% of them were active in at least one assay; those are over-represented in the sample as a whole. The source made the active and inactive calls. Rule for the calls: active = growth percent below 10; inactive = the rest.
Select the correct class. Options are active, inactive and nothing else.

{"compound": "CCCCCCCCCCCC[S+](C)CC(=O)[O-] (configuration not stated)", "measured-target": "NCI-H522 lung", "assigned-label": "inactive"}

Lab log entry: CN1CCC(CN2c3ccccc3Sc3ccccc32)C1 (configuration not stated) — outcome as called in the assay?
inactive

Lab log entry: Oc1c(C(Nc2ccccc2)c2ccccc2)ccc2cccnc12 (configuration not stated) — outcome as called in the assay?
active

----------
Tested on: NCI-H23 lung
run-description: NCI-60 one-dose screen, 48 h
condition-description: 10 µM unless noted
The panel holds about 83,000 compounds, 20% with a hit somewhere; the sample as a whole holds those more often. Activity calls are given as the source filed them. Rule for the calls: active = growth percent below 10; inactive = the rest.
Select the correct class. Options are T for active, F for inactive and nothing else.

{"molecule": "O=C(Nc1cccc(C(F)(F)F)c1)Oc1ccc(Cl)c2cccnc12", "measured-target": "NCI-H23 lung", "assigned-label": "T"}

Lab log entry: N#CC1c2ccccc2C=CN1C(=O)CCCl (stereo unspecified) — outcome as called in the assay?
F

----------
growth listing for selected compounds.
Tested on: RPMI-8226 leukemia
run-description: NCI-60 one-dose screen, 48 h (100 = growth as untreated, 0 = no growth, -100 = all killed)
condition-description: 10 µM unless noted
Compounds without any hit were thinned out: in the full panel of roughly 83,000, 20% have a hit. The source made the active and inactive calls. The calls were made as follows: active = growth percent below 10; inactive = the rest.

{"compound": "CN=C(N)N/N=C(\\C)c1ccc2c(c1)Cc1ccccc1-2", "growth": "-20.7% (active)"}
{"compound": "CC(=O)N1CC(=O)NC1=S", "growth": "101% (inactive)"}
{"compound": "Cc1nn(CCO)c(C)c1N=[N+]([O-])c1c(C)nn(CCO)c1C", "growth": "-35% (active)"}
{"compound": "CN1CCC(CN2c3ccccc3Sc3ccccc32)C1 (stereo unspecified)", "growth": "78.7% (inactive)"}
{"compound": "O=C(O)c1ccc2c(c1)C(=O)c1ccccc1C2=O", "growth": "102% (inactive)"}

Now for another entry.
Form entry - test system: RPMI-8226 leukemia; read-out: growth; compound: "NC(=Nc1nc(-c2ccccn2)cc2ccccc12)c1ccccn1"
-11.3% (active)

----------
Test system: M14 melanoma
run-description: NCI-60 one-dose screen, 48 h (100 = growth as untreated, 0 = no growth, -100 = all killed)
condition-description: 10 µM unless noted
Description: Growth inhibition of the M14 human tumor cell line is measured as a screen for anti-cancer activity. Cells are grown in 96 well plates and exposed to the test compound for 48 hours. Compounds are tested at a single concentration, which is 10^-5 M for most compounds. The reported endpoint is percent growth (GI% or GIPRCNT), where numbers from 0 - 100% represent growth inhibition, and numbers from -100% - 0 represent cell death. For example, a value of 40 represents 60% growth inhibition. […]
Compounds without any hit were thinned out: in the full panel of roughly 83,000, 20% have a hit.
measured-parameter: growth (%)
Reply numerically in %, unit not repeated.

Consider the following illustrative entries.
{"compound": "c1ccc(-c2cccc(-c3ccccn3)n2)nc1", "measured-target": "M14 melanoma", "unit": "%", "experimental-result": -17.8}
{"compound": "O=C(Cc1nc2cc(Cl)c(Cl)cc2nc1CC(=O)c1ccccc1)c1ccccc1", "measured-target": "M14 melanoma", "unit": "%", "experimental-result": 75.2}
{"compound": "CC(C)c1ccc(Nc2n[nH]c(=S)s2)cc1", "measured-target": "M14 melanoma", "unit": "%", "experimental-result": 93.5}
{"compound": "O=C1C=CC(O)=CC1=P(c1ccccc1)(c1ccccc1)c1ccccc1", "measured-target": "M14 melanoma", "unit": "%", "experimental-result": 100}
{"compound": "OC(CSc1ccccc1)CN1CCN(c2ccc(Cl)cc2)CC1 (stereo not drawn)", "measured-target": "M14 melanoma", "unit": "%", "experimental-result": 100}

Would you kindly share the measured growth for "CC1(C)N=c2cc3c(cc2N1c1ccc(Cl)cc1)=Nc1ccccc1N3c1ccc(Cl)cc1" ?
19.3

----------
Tested on: SN12C renal
run-description: NCI-60 one-dose screen, 48 h (100 = growth as untreated, 0 = no growth, -100 = all killed)
condition-description: 10 µM unless noted
This is part of a sample that, as a whole, favours compounds with a hit. Of some 83,000 tested, about 20% had one in any assay.
Label 1 (yes) for high-side growth (at or above 20%) and 0 (no) for low-side growth (below it).

Examples with answers:
{"compound": "CCCCCCCCCCCCCCCCCC1=NCCCN1CCO", "measured-target": "SN12C renal", "assigned-label": "1 (yes)"}
{"compound": "CN(C)c1ccc(C(C#N)(c2ccccc2)c2ccc(N(C)C)cc2)cc1", "measured-target": "SN12C renal", "assigned-label": "0 (no)"}
{"compound": "Cc1ccc2c(c1)sc(-c1ccc(N(C)C)cc1)[n+]2C", "measured-target": "SN12C renal", "assigned-label": "0 (no)"}
{"compound": "c1ccc(C2NCCNC2c2ccccc2)cc1 (stereo unspecified)", "measured-target": "SN12C renal", "assigned-label": "1 (yes)"}
{"compound": "O=C1C=CC(=O)N1c1cc(Cl)c(Cl)cc1Cl", "measured-target": "SN12C renal", "assigned-label": "1 (yes)"}
{"compound": "CC(=O)c1ccc2c(c1)CCc1ccccc1-2", "measured-target": "SN12C renal", "assigned-label": "1 (yes)"}
{"compound": "CCCCCC[C@@H](O)C/C=C\\CCCCCCCC(=O)OCCOC", "measured-target": "SN12C renal", "assigned-label": "1 (yes)"}
{"compound": "N#CCc1cccc2ccccc12", "measured-target": "SN12C renal", "assigned-label": "1 (yes)"}

Could you tell me if the measured growth of "CN(C)c1ccc2cc3c(cc2c1)Oc1ccccc1N3.[Cl][Zn][Cl]" reaches 20% or more?
1 (yes)

Could you tell me if the measured growth of "Cc1ccc(/C=C2\CNC/C(=C\c3ccc(C)cc3)C2=O)cc1" reaches 20% or more?
0 (no)

Could you tell me if the measured growth of "O=C/C=C/c1ccc([N+](=O)[O-])cc1" reaches 20% or more?
1 (yes)

Could you tell me if the measured growth of "CN1CCC(c2ccccc2)(c2ccccc2)C(=O)C1" reaches 20% or more?
1 (yes)

Could you tell me if the measured growth of OC(c1cc(C23CC4CC(CC(C4)C2)C3)nc2c(Cl)cc(Cl)cc12)C1CCCCN1 (stereo unspecified) reaches 20% or more?
0 (no)

----------
Tested on: HCT-15 colon
run-description: NCI-60 one-dose screen, 48 h (100 = growth as untreated, 0 = no growth, -100 = all killed)
condition-description: 10 µM unless noted
This is part of a sample that, as a whole, favours compounds with a hit. Of some 83,000 tested, about 20% had one in any assay.
# note: boundary value 90% maps to false; growth below it maps to true

{"compound": "CN(C)CC(C)(CN(C)C)C(=O)/C=C/c1c(Cl)cccc1Cl", "assigned-label": "true"}

Please state whether growth is below 90% for "N=C1C=C(N)C(=O)c2ccccc21"
true

Please state whether growth is below 90% for "CN(C)c1ccc(/C=C/c2sc3ccc4ccccc4c3[n+]2C)cc1"
true

Please state whether growth is below 90% for "CC(C)(C)c1ccc(O)c(Br)c1"
false

Please state whether growth is below 90% for "Cc1cc(C)c([I+]c2c(C)cc(C)cc2C)c(C)c1"
true

----------
Test system: HCC-2998 colon
run-description: NCI-60 one-dose screen, 48 h
condition-description: 10 µM unless noted
This is part of a sample that, as a whole, favours compounds with a hit. Of some 83,000 tested, about 20% had one in any assay. Active and inactive are the calls of the source. The calls were made as follows: active = growth percent below 10; inactive = the rest.
Select the correct class. Options are yes (1) (active), no (0) (inactive) and nothing else.

Examples with answers:
{"molecule": "CN(C)c1ccc(/C=C/c2ccnc3ccccc23)cc1", "assigned-label": "no (0)"}
{"molecule": "CCCCCCCCCCCC1=NCCCN1CCCC", "assigned-label": "no (0)"}
{"molecule": "O=C(c1ccccc1)c1cc2ccccc2oc1=O", "assigned-label": "no (0)"}
{"molecule": "Nc1cc(-c2ccccc2)ccc1O", "assigned-label": "no (0)"}
{"molecule": "O=C(NOC(=O)c1ccccc1)c1ccccc1", "assigned-label": "no (0)"}

Lab log entry: "O=C(Cc1nc2cc(Cl)c(Cl)cc2nc1CC(=O)c1ccccc1)c1ccccc1" — outcome as called in the assay?
no (0)

Lab log entry: "S=C(SSC(=S)N1CCOCC1)N1CCOCC1" — outcome as called in the assay?
no (0)

Lab log entry: "Clc1ccc(Cc2nc3ccccc3s2)cc1" — outcome as called in the assay?
no (0)

Lab log entry: CCN1CCCC(Nc2cc(C)nc(/N=C(/N)Nc3ccc(Cl)c(Cl)c3)n2)C1 (configuration not stated) — outcome as called in the assay?
yes (1)

Lab log entry: "COc1cc(/C=C/C(=O)CC(=O)/C=C/c2ccc(O)c(OC)c2)ccc1O" — outcome as called in the assay?
yes (1)

Lab log entry: "O=[N+]([O-])c1ccc([I+]c2ccccc2)cc1" — outcome as called in the assay?
no (0)

Lab log entry: "Oc1ccc(Cl)cc1Cc1cc(Cl)ccc1O" — outcome as called in the assay?
no (0)

Lab log entry: "CC(C)Nc1ccc(Nc2ccc(NC(C)C)cc2)cc1" — outcome as called in the assay?
no (0)

Lab log entry: "OC(Cc1cc(CC(O)(C(F)(F)F)C(F)(F)F)nc(CC(O)(C(F)(F)F)C(F)(F)F)c1)(C(F)(F)F)C(F)(F)F" — outcome as called in the assay?
no (0)

Lab log entry: "COc1ccc(NC(=O)/C(=C/N2C(=O)/C(=C/c3ccc(OC)c(OC)c3)NC2=S)C(C)=O)cc1" — outcome as called in the assay?
no (0)
